FYI, the data here is from patent US10670605B2.

isoTOP-ABPP ratio (reactivity profile), P24752_C119 listing for selected compounds.
# test.system: ACAT1 C119 (P24752) (Homo sapiens, UniProt P24752)
# Sequence (P24752 34-427): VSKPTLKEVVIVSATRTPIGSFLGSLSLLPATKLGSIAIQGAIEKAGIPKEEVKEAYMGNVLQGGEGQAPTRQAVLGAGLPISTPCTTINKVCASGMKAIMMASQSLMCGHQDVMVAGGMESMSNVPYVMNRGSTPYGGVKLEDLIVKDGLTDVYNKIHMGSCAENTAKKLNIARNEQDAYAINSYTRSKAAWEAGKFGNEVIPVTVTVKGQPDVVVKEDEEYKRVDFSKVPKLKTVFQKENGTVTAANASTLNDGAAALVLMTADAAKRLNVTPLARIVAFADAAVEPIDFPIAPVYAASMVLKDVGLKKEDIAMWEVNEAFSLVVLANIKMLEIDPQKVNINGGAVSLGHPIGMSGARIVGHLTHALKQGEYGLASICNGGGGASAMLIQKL
# method.summary: Competitive isoTOP-ABPP, cell lysates
# Type: binding
# condition.parameters: 500 μm in-vitro ramos_231
# print the numeric value only

Known results for compounds:
COc1ccccc1OCCNC(=O)CCl [compound 28] :: 1.1
O=C(CCl)N1CCC(C(O)(c2ccccc2)c2ccccc2)CC1 [compound 20] :: 3.6
CC(Cl)C(=O)Nc1cc(C(F)(F)F)cc(C(F)(F)F)c1 (stereo not shown) [compound 25] :: 1.0
O=C(CCl)N1CCN(CC(=O)N2CCOCC2)CC1 [compound 29] :: 1.3
N#C/C(=C\c1cc(C(F)(F)F)cc(C(F)(F)F)c1)C(N)=O [compound 23] :: 1.7
O=C(CCl)NC12CC3CC(CC(C3)C1)C2 [compound 21] :: 0.9

Given the entry O=C(CCl)N1CCOCC1 [compound 22] , report its measured isoTOP-ABPP ratio (reactivity profile), P24752_C119.
1.0
